Answer each item with its documented Incidence of pulmonary fibrosis, %.
system: ICR strain mice; assay: Pulmonary toxicity (pulmonary fibrosis) in mice, intraperitoneal injection; type: in vivo; details: 5 mg/kg i.p. once a day for 10 days; autopsy after 5 weeks
Give bare numbers, in %.

# example entries with known answers
>>> experimental_value("Cc1c(N)nc(C(CC(N)=O)NCC(N)C(N)=O)nc1C(=O)NC(C(=O)NC(C)C(O)C(C)C(=O)NC(C(=O)NCCc1nc(-c2nc(C(=O)NCCCN(C)CCCN(Cc3ccc(OCc4ccc(Cl)c(Cl)c4)c(OCc4ccc(Cl)c(Cl)c4)c3)Cc3ccc(OCc4ccc(Cl)c(Cl)c4)c(OCc4ccc(Cl)c(Cl)c4)c3)cs2)cs1)C(C)O)C(OC1OC(CO)C(O)C(O)C1OC1OC(CO)C(O)C(OC(N)=O)C1O)c1cnc[nH]1 (stereo not drawn) [compound 49]")
0
>>> experimental_value("Cc1c(N)nc(C(CC(N)=O)NCC(N)C(N)=O)nc1C(=O)NC(C(=O)NC(C)C(O)C(C)C(=O)NC(C(=O)NCCc1nc(-c2nc(C(=O)NCCC[N+](C)(C)CCC[N+](C)(C)CCCNCC3CCCCCCC3)cs2)cs1)C(C)O)C(OC1OC(CO)C(O)C(O)C1OC1OC(CO)C(O)C(OC(N)=O)C1O)c1cnc[nH]1 (stereo not drawn) [Compound No. 42]")
0
>>> experimental_value("Cc1c(N)nc(C(CC(N)=O)NCC(N)C(N)=O)nc1C(=O)NC(C(=O)NC(C)C(O)C(C)C(=O)NC(C(=O)NCCc1nc(-c2nc(C(=O)NCCCN(C)CCCN(Cc3ccc(OCc4ccc(OCc5ccccc5)cc4)cc3)Cc3ccc(OCc4ccc(OCc5ccccc5)cc4)cc3)cs2)cs1)C(C)O)C(OC1OC(CO)C(O)C(O)C1OC1OC(CO)C(O)C(OC(N)=O)C1O)c1cnc[nH]1 (stereo not drawn) [compound 51]")
0
>>> experimental_value("Cc1c(N)nc(C(CC(N)=O)NCC(N)C(N)=O)nc1C(=O)NC(C(=O)NC(C)C(O)C(C)C(=O)NC(C(=O)NCCc1nc(-c2nc(C(=O)NCCCN(C)CCCNCc3ccc(OCc4ccccc4)c(OCc4ccccc4)c3)cs2)cs1)C(C)O)C(OC1OC(CO)C(O)C(O)C1OC1OC(CO)C(O)C(OC(N)=O)C1O)c1cnc[nH]1 (stereo not drawn) [compound 15]")
11
>>> experimental_value("Cc1c(N)nc(C(CC(N)=O)NCC(N)C(N)=O)nc1C(=O)NC(C(=O)NC(C)C(O)C(C)C(=O)NC(C(=O)NCCc1nc(-c2nc(C(=O)NCCCN(C)CCCN(Cc3ccccc3)Cc3ccccc3)cs2)cs1)C(C)O)C(OC1OC(CO)C(O)C(O)C1OC1OC(CO)C(O)C(OC(N)=O)C1O)c1cnc[nH]1 (stereo not drawn) [compound 27]")
20

Please give measured Incidence of pulmonary fibrosis, % of the following entry: Cc1c(N)nc(C(CC(N)=O)NCC(N)C(N)=O)nc1C(=O)NC(C(=O)NC(C)C(O)C(C)C(=O)NC(C(=O)NCCc1nc(-c2nc(C(=O)NCCCN(C)CCCNCCc3ccc(Cl)cc3)cs2)cs1)C(C)O)C(OC1OC(CO)C(O)C(O)C1OC1OC(CO)C(O)C(OC(N)=O)C1O)c1cnc[nH]1 (stereo not drawn) [compound 1]
22

----------
tested on: ICR strain mice; experiment: Pulmonary toxicity (pulmonary fibrosis) in mice, intraperitoneal injection; type: in vivo; details: 5 mg/kg i.p. once a day for 10 days; reference of the ratio not stated
QUANTITY NAME: Grade of pulmonary fibrosis, Ratio
Answers are plain numbers.

# example entries with known answers
>>> experimental_value("Cc1c(N)nc(C(CC(N)=O)NCC(N)C(N)=O)nc1C(=O)NC(C(=O)NC(C)C(O)C(C)C(=O)NC(C(=O)NCCc1nc(-c2nc(C(=O)NCCC[N+](C)(C)CCC[N+](C)(C)CCCN(Cc3ccccc3)Cc3ccccc3)cs2)cs1)C(C)O)C(OC1OC(CO)C(O)C(O)C1OC1OC(CO)C(O)C(OC(N)=O)C1O)c1cnc[nH]1 (stereo not drawn)")
0.00
>>> experimental_value("Cc1c(N)nc(C(CC(N)=O)NCC(N)C(N)=O)nc1C(=O)NC(C(=O)NC(C)C(O)C(C)C(=O)NC(C(=O)NCCc1nc(-c2nc(C(=O)NCCCN(C)CCCNCC3CCCCCCC3)cs2)cs1)C(C)O)C(OC1OC(CO)C(O)C(O)C1OC1OC(CO)C(O)C(OC(N)=O)C1O)c1cnc[nH]1.Cl.Cl.Cl (stereo not drawn)")
0.000

Please give measured Grade of pulmonary fibrosis, Ratio of the following entry: Cc1c(N)nc(C(CC(N)=O)NCC(N)C(N)=O)nc1C(=O)NC(C(=O)NC(C)C(O)C(C)C(=O)NC(C(=O)NCCc1nc(-c2nc(C(=O)NCCCN(C)CCCNCC(c3ccccc3)c3ccccc3)cs2)cs1)C(C)O)C(OC1OC(CO)C(O)C(O)C1OC1OC(CO)C(O)C(OC(N)=O)C1O)c1cnc[nH]1 (stereo not drawn)
0.08
